ENDPOINT: melting point

INSERT INTO results (compound, endpoint, result) VALUES
  ('CC(=O)Oc1c(-c2ccccc2)sc2nc(C(C)(C)C)ccc12', 'melting point', '128 to 129 °C'),
  ('N#Cc1c(I)[nH]c(I)c1I', 'melting point', '257 to 258 °C'),
  ('O=C(O)[C@H]1CC[C@H](N2CCC(Oc3ccc(Cl)c(Cl)c3)CC2)CC1', 'melting point', '167 to 168 °C'),
  ('c1cc(OC2CCNCC2)c2cn[nH]c2c1', 'melting point', '162 to 165 °C'),
  ('O=C(Nc1ccc2ccc(Cl)cc2n1)c1ccccc1', 'melting point', '133 °C'),
  ('C#CCON=Cc1c(C(=O)OC)[nH]c2c(C)ccc(C)c12', 'melting point', '113 to 114 °C'),
  ('Cc1cccc(NC(=O)NC2N=C(CN3CC4CCC(CC4)C3)c3cccc(C)c3N(C)C2=O)c1 (stereo unspecified)', 'melting point', '146 to 149 °C'),
  ('OC1CCCc2nc3cc(Cl)ccc3c(NCc3ccc(F)cc3)c21 (stereo unspecified)', 'melting point', '187 to 188 °C'),
  ('CCCCOC(=O)c1ccc(C(=O)NNC(=O)c2ccc(C(=O)OCCCC)cc2)cc1', 'melting point', '166 to 168 °C'),
  ('O=C1NC(=O)C(c2ccccc2Cl)C1c1cc2c3c(ccn3CCC2)c1 (stereo unspecified)', 'melting point', '209 to 212 °C'),
  ('CC1(C)CCC(C)(C)c2cc(CCCn3cccn3)c(/C=C/c3ccc(C(=O)O)cc3)cc21', 'melting point', '182 °C'),
  ('Cn1cc(C2=C(c3cn(C)c4ccc([N+](=O)[O-])cc34)C(=O)NC2=O)c2ccccc21', 'melting point', '282 to 284 °C'),
  ('COC(=O)c1ccccc1OCC(O)CN1CCN(c2ccccc2OC)CC1 (stereo unspecified)', 'melting point', '120 to 121 °C'),
  ('CCN(CC)c1c(OC)cccc1C(=O)O', 'melting point', '68 to 71 °C'),
  ('NC(=O)OCc1ccc(CNC(=O)[C@@H](CCCNC(N)=N[N+](=O)[O-])NC(=O)C(c2ccccc2)c2ccccc2)cc1', 'melting point', '130 to 132 °C'),
  ('ON=Cc1ccc(OCc2csc(-c3ccccc3)n2)cc1', 'melting point', '175 to 179 °C'),
  ('CNC(=S)C1=CC(CF)(CF)Oc2cc(Cl)c(Cl)cc21', 'melting point', '142 to 143 °C'),
  ('Cn1cnc(S(=O)(=O)Nc2ccc(OCCN3CCN(c4nsc5ccccc45)CC3)cc2)c1', 'melting point', '176 °C'),
  ('C[C@H]1COS(=O)(=O)N1C(=O)OC(C)(C)C', 'melting point', '121 to 122 °C'),
  ('CCC(=O)c1ccc(CCN(C(C)=O)S(=O)(=O)c2ccc(Cl)cc2)cc1', 'melting point', '91 to 92 °C'),
  ('COc1cc2ncc(N3C(=O)C4CCC3CC4)nc2cc1OC', 'melting point', '158 to 159 °C');
